- procedure text: NCI Yeast Anticancer Drug Screen. Data for the rad50 strain (AID 155);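 also: 0% = growth of vehicle-only cultures of the same strain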
- measurement conditions: S. cerevisiae rad50 strain growth inhibition; at 50.0 µM; hits give high values
This is part of a sample that, as a whole, favours compounds with a hit. Of some 79,000 tested, about 15% had one in any assay.
Kindly supply the reported growth inhibition values for the records listed here.
Give bare numbers, in %.

Completed entries (count: 3):
CSC(=S)c1ccc(NSc2ccccc2[N+](=O)[O-])cc1; 7.6
N#C/C(=C/c1cccc2ccccc12)C(N)=O; 21.6
COC(=O)C1C(=O)C=C(O)C2CCCCC21 (configuration not stated); 2.05

List growth inhibition for every entry below, keeping the order given.
1. c1ccc(SCCC(Sc2ccccc2)Sc2ccccc2)cc1
2. CN(N=Nc1ccc(C#N)cc1)C(C)(C)C
3. O=C1C(NCCc2ccc(O)c(O)c2)=CC(=O)c2ncccc21

1. -3.45
2. 3.3
3. 35.5
